# test: Cytotoxicity against African green monkey Vero cells assessed as growth inhibition after 48 hrs
# Assay type: cell-based
# conditions_used: chlorocebus sabaeus, read-out: TC50
parameter: CC50 at 48 h (µM)
# number only, unit µM dropped from output

Guide cases for CC50 at 48 h, answers given:
INSERT INTO results (smiles_str, reported) VALUES
  ('O=S(=O)(c1ccc(OC(F)(F)F)cc1)N1C[C@@H]2CCCN3CCC[C@@H]([C@H]23)[C@H]1CCCCO', 101),
  ('CN1CCN(CCCC[C@@H]2[C@H]3CCCN4CCC[C@@H](CN2S(=O)(=O)c2cccc(C#N)c2)[C@@H]34)CC1', 116),
  ('COC(=O)CCC[C@@H]1[C@H]2CCCN3CCC[C@@H](CN1S(=O)(=O)c1ccc(OC(F)(F)F)cc1)[C@@H]23', 191);

Let me know recorded CC50 at 48 h for NC(=O)CCC[C@@H]1[C@H]2CCCN3CCC[C@@H](CN1S(=O)(=O)c1cccc(C(F)(F)F)c1)[C@@H]23 , thanks. 177

Consider the compound CN(C)C(=O)CCC[C@@H]1[C@H]2CCCN3CCC[C@@H](CN1S(=O)(=O)c1cccc(C(F)(F)F)c1)[C@@H]23 . State its measured CC50 at 48 h. 168

Specify reported CC50 at 48 h for the compound shown: COCCCC[C@@H]1[C@H]2CCCN3CCC[C@@H](CN1S(=O)(=O)c1cccc(C(F)(F)F)c1)[C@@H]23 75.4

Give recorded CC50 at 48 h. CN(C)CCCC[C@@H]1[C@H]2CCCN3CCC[C@@H](CN1S(=O)(=O)c1ccc(C#N)cc1)[C@@H]23 96.2

Give the value of CC50 at 48 h reported for the following: O=C(CCC[C@@H]1[C@H]2CCCN3CCC[C@@H](CN1S(=O)(=O)c1cccc(C(F)(F)F)c1)[C@@H]23)N1CCOCC1 156

Give recorded CC50 at 48 h. COCCCC[C@@H]1[C@H]2CCCN3CCC[C@@H](CN1S(=O)(=O)c1cccc(C#N)c1)[C@@H]23 332

Give recorded CC50 at 48 h. O=C(CCC[C@@H]1[C@H]2CCCN3CCC[C@@H](CN1S(=O)(=O)c1ccc(OC(F)(F)F)cc1)[C@@H]23)N1CCC1 170

----------
The compounds listed here are annotated with their pIC50.
# System: Coxsackievirus B3
# test: Antivirus activity against Coxsackievirus B3 infected in African green monkey vero cells assessed as inhibition of virus-induced cytopathic effect
# Assay type: functional, organism-based
# conditions_used: Enterovirus B
pIC50: −log10 of the molar value.

INSERT INTO measurements (smiles_str, reported) VALUES
  ('CN1CCN(CCCC[C@@H]2[C@H]3CCCN4CCC[C@@H](CN2S(=O)(=O)c2ccc(S(C)(=O)=O)cc2)[C@@H]34)CC1', '< 4.65'),
  ('N#Cc1ccc(S(=O)(=O)N2C[C@@H]3CCCN4CCC[C@@H]([C@H]34)[C@H]2CCCCN2CCOCC2)cc1', '< 4.65'),
  ('O=S(=O)(c1ccc(OC(F)(F)F)cc1)N1C[C@@H]2CCCN3CCC[C@@H]([C@H]23)[C@H]1CCCCO', 5.00);

# lookup: Coxsackievirus B3 pIC50, key = CC(=O)c1ccc(S(=O)(=O)N2C[C@@H]3CCCN4CCC[C@@H]([C@H]34)[C@H]2CCCC(=O)O)cc1 < 3.86

Report the value of pIC50 obtained on Coxsackievirus B3 for CN(C)CCCC[C@@H]1[C@H]2CCCN3CCC[C@@H](CN1S(=O)(=O)c1ccc(C#N)cc1)[C@@H]23 . < 4.65

Report measured pIC50 on Coxsackievirus B3; entry: CC(=O)c1ccc(S(=O)(=O)N2C[C@@H]3CCCN4CCC[C@@H]([C@H]34)[C@H]2CCCCN(C)C)cc1 < 4.65

State measured pIC50 of the compound CN1CCN(CCCC[C@@H]2[C@H]3CCCN4CCC[C@@H](CN2S(=O)(=O)c2ccc(C#N)cc2)[C@@H]34)CC1 with Coxsackievirus B3. < 4.65

Tell me its pIC50 on Coxsackievirus B3: CN1CCN(CCCC[C@@H]2[C@H]3CCCN4CCC[C@@H](CN2S(=O)(=O)c2cccc(C(F)(F)F)c2)[C@@H]34)CC1 < 5.13

// fetch pIC50; item: COC(=O)c1ccc(S(=O)(=O)N2C[C@@H]3CCCN4CCC[C@@H]([C@H]34)[C@H]2CCCCN2CCN(C)CC2)cc1 ; system: Coxsackievirus B3 < 4.65

Quote Coxsackievirus B3 pIC50 for entry CC(=O)c1ccc(S(=O)(=O)N2C[C@@H]3CCCN4CCC[C@@H]([C@H]34)[C@H]2CCCC(=O)N2CCOCC2)cc1 . < 3.93

----------
Listing of recorded IC50 by entry.
# Tested on: Coxsackievirus B3
# test: Antivirus activity against Coxsackievirus B3 infected in African green monkey vero cells assessed as inhibition of virus-induced cytopathic effect
# Type: functional, organism-based
# conditions_used: Enterovirus B

Example results:
INSERT INTO assay_data (molecule, target_of_assay, reported) VALUES
  ('CC(=O)c1ccc(S(=O)(=O)N2C[C@@H]3CCCN4CCC[C@@H]([C@H]34)[C@H]2CCCCN2CCOCC2)cc1', 'Coxsackievirus B3', '> 22.2 µM'),
  ('CC(O)c1ccc(S(=O)(=O)N2C[C@@H]3CCCN4CCC[C@@H]([C@H]34)[C@H]2CCCCO)cc1 (stereo partly drawn)', 'Coxsackievirus B3', '> 142 µM');

State, for Coxsackievirus B3, measured IC50 of the molecule listed here: O=C(O)CCC[C@@H]1[C@H]2CCCN3CCC[C@@H](CN1S(=O)(=O)c1ccc(OC(F)(F)F)cc1)[C@@H]23 > 127 µM

----------
# test: Cytotoxicity against African green monkey Vero cells assessed as growth inhibition after 48 hrs
# Type: cell-based
# conditions_used: chlorocebus sabaeus, read-out: TC50
parameter: CC50 at 48 h

INSERT INTO results (compound, reported) VALUES
  ('CC(O)c1ccc(S(=O)(=O)N2C[C@@H]3CCCN4CCC[C@@H]([C@H]34)[C@H]2CCCCO)cc1 (some centres undefined)', '> 425 µM'),
  ('CC(=O)c1ccc(S(=O)(=O)N2C[C@@H]3CCCN4CCC[C@@H]([C@H]34)[C@H]2CCCC(=O)N(C)C)cc1', '> 391 µM'),
  ('CC(=O)c1ccc(S(=O)(=O)N2C[C@@H]3CCCN4CCC[C@@H]([C@H]34)[C@H]2CCCC(=O)N2CCOCC2)cc1', '> 361 µM');

Below: the item to evaluate.
Please supply the value of reported CC50 at 48 h for the item CC(=O)c1ccc(S(=O)(=O)N2C[C@@H]3CCCN4CCC[C@@H]([C@H]34)[C@H]2CCCC(=O)O)cc1 > 413 µM
